# PROTOCOL DESCRIPTION: Heating experiments (105° C., XRPD)
# Assay type: physicochemical
# CONDITION INFO: about 1 hour
QUANTITY MEASURED: XRPD after heating compared to before heating

MOLECULE	VALUE MEASURED
CC(C)(Cc1cc2c(-c3ccc(C#N)cc3)cncc2s1)C(=O)O [crystal form IV]	unchanged
CC(C)(Cc1cc2c(-c3ccc(C#N)cc3)cncc2s1)C(=O)O [crystal form I]	unchanged
